Origin of measurements: patent US9056844B2

TARGET_OF_ASSAY: human mGlu1 receptor (Homo sapiens)
Construct: expressed in transfected cells; host or cells: AV12 cells, co-expressing rat EAAT1
Sequence (Q13255 19-1194): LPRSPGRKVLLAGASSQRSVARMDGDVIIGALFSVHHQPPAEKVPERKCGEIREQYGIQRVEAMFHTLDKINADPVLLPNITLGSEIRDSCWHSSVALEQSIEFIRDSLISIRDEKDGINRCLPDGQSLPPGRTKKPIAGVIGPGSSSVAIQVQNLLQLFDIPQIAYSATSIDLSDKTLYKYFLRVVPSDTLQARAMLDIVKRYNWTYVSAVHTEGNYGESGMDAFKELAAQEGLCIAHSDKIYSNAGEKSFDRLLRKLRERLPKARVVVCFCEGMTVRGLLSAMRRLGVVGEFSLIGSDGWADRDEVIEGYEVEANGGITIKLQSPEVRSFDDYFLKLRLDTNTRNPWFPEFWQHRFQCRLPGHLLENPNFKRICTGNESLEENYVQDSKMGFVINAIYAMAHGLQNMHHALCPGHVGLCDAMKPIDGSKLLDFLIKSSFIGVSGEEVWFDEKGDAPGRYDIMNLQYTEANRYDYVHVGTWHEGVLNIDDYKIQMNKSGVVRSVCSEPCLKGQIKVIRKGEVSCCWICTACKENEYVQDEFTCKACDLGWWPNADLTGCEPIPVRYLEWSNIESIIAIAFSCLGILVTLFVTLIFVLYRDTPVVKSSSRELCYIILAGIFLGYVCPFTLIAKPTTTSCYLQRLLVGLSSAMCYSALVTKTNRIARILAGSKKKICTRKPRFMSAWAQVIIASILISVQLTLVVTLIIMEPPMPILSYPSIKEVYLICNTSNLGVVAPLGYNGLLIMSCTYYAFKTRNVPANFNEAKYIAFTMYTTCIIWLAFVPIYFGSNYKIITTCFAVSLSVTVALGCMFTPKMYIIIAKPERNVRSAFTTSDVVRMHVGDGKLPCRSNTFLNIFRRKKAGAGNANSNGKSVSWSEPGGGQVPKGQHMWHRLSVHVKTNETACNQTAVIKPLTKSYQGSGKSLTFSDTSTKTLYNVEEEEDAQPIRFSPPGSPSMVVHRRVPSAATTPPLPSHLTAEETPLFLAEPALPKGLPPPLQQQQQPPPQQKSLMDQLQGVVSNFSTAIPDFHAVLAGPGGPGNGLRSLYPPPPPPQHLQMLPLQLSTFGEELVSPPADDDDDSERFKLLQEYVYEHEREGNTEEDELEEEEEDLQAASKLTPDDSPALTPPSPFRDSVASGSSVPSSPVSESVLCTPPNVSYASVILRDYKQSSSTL
EXPERIMENTAL_DETAILS: FLIPR calcium assay for mGlu receptor selectivity, mGlu1 antagonist mode
Assay type: cell-based
APPLIED_CONDITIONS: inhibition of EC90 glutamate response, read-out: mGlu1 % inhib. @12.5 μM
METRIC: inhibition at 12.5 µM (%)
Give your result in % as a bare value.

INSERT INTO results (molecule, reported_result) VALUES
  ('CC(=O)N[C@H]1[C@H]2[C@H](C(=O)O)[C@H]2[C@](N)(C(=O)O)[C@@H]1OCc1ccc(Cl)c(Cl)c1', -2),
  ('N[C@]1(C(=O)O)[C@@H]2[C@@H](C(=O)O)[C@@H]2[C@H](O)[C@H]1OCc1ccc(Cl)c(Cl)c1', -0.47),
  ('Cl.Cn1cnc(S[C@H]2[C@H]3[C@H](C(=O)O)[C@H]3[C@](N)(C(=O)O)[C@@H]2OCc2ccc(Cl)c(Cl)c2)n1 [Example 7, hydrochloride]', 11.2),
  ('N[C@]1(C(=O)O)[C@@H]2[C@@H](C(=O)O)[C@@H]2[C@H](Sc2nc[nH]n2)[C@H]1OCc1ccc(Cl)c(Cl)c1', 8.6);

What value of measured inhibition at 12.5 µM is listed for Cl.N[C@]1(C(=O)O)[C@@H]2[C@@H](C(=O)O)[C@@H]2[C@H](NC(=O)CO)[C@H]1OCc1ccc(Cl)c(Cl)c1 [Example 9, hydrochloride] ?
5

* * *

Listing of entries alongside the reported IC50.
TARGET_OF_ASSAY: human mGlu2 receptors (Homo sapiens, UniProt Q14416)
Sequence (Q14416 19-872): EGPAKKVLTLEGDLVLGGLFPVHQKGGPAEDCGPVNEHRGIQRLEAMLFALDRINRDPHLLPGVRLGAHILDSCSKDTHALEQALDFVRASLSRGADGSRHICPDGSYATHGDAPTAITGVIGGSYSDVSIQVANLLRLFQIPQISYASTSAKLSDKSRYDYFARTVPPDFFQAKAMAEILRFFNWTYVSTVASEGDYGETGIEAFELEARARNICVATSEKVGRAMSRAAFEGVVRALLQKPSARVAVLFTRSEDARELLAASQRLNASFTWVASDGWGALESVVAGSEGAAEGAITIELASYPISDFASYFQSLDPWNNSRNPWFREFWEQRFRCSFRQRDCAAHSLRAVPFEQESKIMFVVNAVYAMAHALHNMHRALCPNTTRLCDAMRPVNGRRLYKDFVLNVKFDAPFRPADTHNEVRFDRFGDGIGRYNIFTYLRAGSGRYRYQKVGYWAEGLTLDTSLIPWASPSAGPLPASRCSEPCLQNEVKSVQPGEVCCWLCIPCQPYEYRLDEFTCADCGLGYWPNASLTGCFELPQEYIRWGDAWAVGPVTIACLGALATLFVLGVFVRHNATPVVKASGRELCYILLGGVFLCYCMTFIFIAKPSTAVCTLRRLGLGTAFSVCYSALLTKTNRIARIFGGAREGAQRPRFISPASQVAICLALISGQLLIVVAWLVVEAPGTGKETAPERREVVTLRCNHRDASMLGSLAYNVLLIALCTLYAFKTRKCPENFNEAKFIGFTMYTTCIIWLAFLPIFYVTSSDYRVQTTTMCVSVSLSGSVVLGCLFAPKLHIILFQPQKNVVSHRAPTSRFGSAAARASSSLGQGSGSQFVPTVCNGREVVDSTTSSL
EXPERIMENTAL_DETAILS: mGlu2 receptor cAMP antagonist assay
APPLIED_CONDITIONS: reversal of DCG IV (EC90) inhibition of forskolin-stimulated cAMP; AV12 cells
Give your result in nM as a bare value.

INSERT INTO measurements (molecule, reported_result) VALUES
  ('CC(=O)N[C@H]1[C@H]2[C@H](C(=O)O)[C@H]2[C@](N)(C(=O)O)[C@@H]1OCc1ccc(Cl)c(Cl)c1 [Example 4]', 25.5),
  ('N[C@]1(C(=O)O)[C@@H]2[C@@H](C(=O)O)[C@@H]2[C@H](Sc2nccs2)[C@H]1OCc1ccc(Cl)c(Cl)c1 [Example 3]', 25.4),
  ('N[C@]1(C(=O)O)[C@@H]2[C@@H](C(=O)O)[C@@H]2[C@H](Sc2nc[nH]n2)[C@H]1OCc1ccc(Cl)c(Cl)c1 [Example 2]', 13.1),
  ('N[C@]1(C(=O)O)[C@@H]2[C@@H](C(=O)O)[C@@H]2[C@H](O)[C@H]1OCc1ccc(Cl)c(Cl)c1 [Example 1]', 43.3);

For human mGlu2 receptors (Homo sapiens, UniProt Q14416), provide IC50 of Cl.N[C@]1(C(=O)O)[C@@H]2[C@@H](C(=O)O)[C@@H]2[C@H](NC(=O)CO)[C@H]1OCc1ccc(Cl)c(Cl)c1 [Example 9, hydrochloride] please.
22

* * *

Test system: male NIH-Swiss mice
EXPERIMENTAL_DETAILS: Forced-swim test in mice (mFST)
Format: in vivo, mouse
APPLIED_CONDITIONS: Mus musculus, ip; immobility in last 4 min of 6 min
Procedure: Forced-Swim Test in Mice (mFST) mFST is an established in vivo assay for antidepressant activity (Li et al. J Pharmacol Exp Ther. 319(1):254-9, 2006.). […] The duration of immobility during the last 4 min. of the 6 min. period of the test was scored. A mouse is recorded as immobile when floating motionless or making only those movements necessary to keep its head above water.
METRIC: ED60 (mg/kg)
Give your result in mg/kg as a bare value.

INSERT INTO results (molecule, metric, reported_result) VALUES
  ('Cl.Cn1ncnc1S[C@H]1[C@H]2[C@H](C(=O)O)[C@H]2[C@](N)(C(=O)O)[C@@H]1OCc1ccc(Cl)c(Cl)c1 [Example 6]', 'ED60', 7.3);

For male NIH-Swiss mice, provide ED60 of N[C@]1(C(=O)O)[C@@H]2[C@@H](C(=O)O)[C@@H]2[C@H](O)[C@H]1OCc1ccc(Cl)c(Cl)c1 [Example 1] please.
1
